Origin of the recorded values: patent US10030004B2

Property: concentration at 0.5 h; scope: individual molecules
- Measurement Description: Plasma and brain concentrations at 0.5 and 1 h in mice
- Type: in vivo
- Run Conditions: male, mouse, brain, 2 mg/kg; IV, 0.5 h; read-out: Brain Concentration

Molecule: CC(C)c1cnc(-c2cc(Cl)ccc2F)cc1Nc1ccncc1C(=O)NC(CO)CO
concentration at 0.5 h (nM): 7
--
Molecule: CC(C)c1cnc(-c2cc(Cl)ccc2F)cc1Nc1ccncc1C(=O)NCCN
concentration at 0.5 h (nM): 4
--
Molecule: C[C@H](O)CNC(=O)c1cnccc1Nc1cc(-c2cc(Cl)ccc2F)ncc1N(C)C (single isomer, unassigned) [16a]
concentration at 0.5 h (nM): 48

* * *

- Experimental System: UniProt:Q04771
- Sequence (Q04771 21-509): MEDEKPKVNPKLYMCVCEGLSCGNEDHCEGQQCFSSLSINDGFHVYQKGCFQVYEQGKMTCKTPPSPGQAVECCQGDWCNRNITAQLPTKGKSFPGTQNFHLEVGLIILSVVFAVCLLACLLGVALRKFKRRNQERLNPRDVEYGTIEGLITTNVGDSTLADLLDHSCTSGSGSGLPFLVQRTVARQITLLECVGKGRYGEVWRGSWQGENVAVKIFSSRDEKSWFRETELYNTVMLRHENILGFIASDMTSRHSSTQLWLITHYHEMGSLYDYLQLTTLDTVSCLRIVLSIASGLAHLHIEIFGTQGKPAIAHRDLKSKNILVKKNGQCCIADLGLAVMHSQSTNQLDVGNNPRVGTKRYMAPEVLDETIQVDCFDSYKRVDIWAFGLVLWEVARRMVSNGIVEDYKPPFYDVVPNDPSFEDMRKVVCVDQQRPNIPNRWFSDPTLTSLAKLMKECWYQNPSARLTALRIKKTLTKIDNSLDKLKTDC
- Measurement Description: In vitro kinase assay, ALK2
- Assay type: biochemical
- Run Conditions: 10 μM ATP; read-out: Inhibition of ALK2 IC50

Compound: CC(C)c1cnc(-c2ncccc2F)cc1Nc1ncnc2[nH]ccc12
IC50: 73 µM

Compound: CC(C)c1cnc(-c2ccccc2)cc1Nc1ccncc1C(=O)NC[C@H](C)O
IC50: > 1000 µM

Compound: CC(O)CNC(=O)c1c[nH]nc1Nc1cc(-c2cc(Cl)ccc2F)ncc1C(C)C (single isomer, unassigned) [21a]
IC50: > 1000 µM

Compound: C[C@H](O)CNC(=O)c1cnccc1Nc1cc(-c2cc(Cl)ccc2F)ncc1C1CC1
IC50: > 10 µM

Compound: C=C(C)c1cnc(-c2cc(Cl)ccc2F)cc1Nc1ccncc1C(=O)N1CCCC1
IC50: > 10 µM

Compound: C=C(C)c1cnc(-c2cc(Cl)ccc2F)cc1Nc1ncncc1C(=O)NC[C@H](C)O
IC50: 10.6 µM

Compound: C=C(C)c1cnc(-c2cc(Cl)ccc2F)cc1Nc1ccncc1C(=O)N[C@@H](C)CO
IC50: 10.9 µM

Compound: C=C(C)c1cnc(-c2cc(Cl)ccc2F)cc1Nc1ccncc1C(=O)N[C@@H](CC)CO (single isomer, unassigned) [24a]
IC50: > 100 µM

Compound: C=C(C)c1c(Nc2ccncc2C(=O)NC[C@H](C)O)cc(-c2cc(Cl)ccc2F)nc1N (single isomer, unassigned) [23a]
IC50: > 100 µM

Compound: C=C(C)c1cnc(-c2cc(Cl)ccc2F)cc1Nc1ccncc1C(=O)NCCO
IC50: > 100 µM

* * *

- Measurement Description: Plasma and brain concentrations at 0.5 and 1 h in mice
- Format: in vivo
- Run Conditions: male, mouse, plasma; IV (2 mg/kg), 1 h; read-out: Plasma concentration
Property: concentration at 1 h; scope: individual compounds

Compound: C=C(C)c1cnc(-c2cc(Cl)ccc2F)cc1Nc1ccncc1C(=O)NC[C@H](C)O (single isomer, unassigned) [3a]
concentration at 1 h: 365 ng/mL

Compound: CC(C)c1cnc(-c2cc(Cl)ccc2F)cc1Nc1ccncc1C(=O)NC[C@H](C)O (single isomer, unassigned) [2a]
concentration at 1 h: 366 ng/mL

* * *

- Measurement Description: Pharmacokinetics and bioavailability in male mice after a single dose
- Type: in vivo
- Run Conditions: mouse, plasma, intravenous, 2 mg/kg, read-out: Terminal t1/2 (converted)
I would appreciate it if you labelled entries yes (1) when half-life is 2 h or higher, otherwise no (0).

Molecule: CCc1cnc(-c2cc(Cl)ccc2F)cc1Nc1ccncc1C(=O)NC[C@H](C)O (single isomer, unassigned) [11a]
Label Class: no (0)

Molecule: C=C(C)c1cnc(-c2cc(Cl)ccc2F)cc1Nc1ccncc1C(=O)NC[C@H](C)O (single isomer, unassigned)
Label Class: yes (1)

Molecule: C[C@H](O)CNC(=O)c1cnccc1Nc1cc(-c2cc(Cl)ccc2F)ncc1N(C)C (single isomer, unassigned) [16a]
Label Class: no (0)

Molecule: CC(C)c1cnc(-c2cc(Cl)ccc2F)cc1Nc1ccncc1C(=O)NC(CO)CO
Label Class: no (0)

Molecule: CC(C)c1cnc(-c2cc(Cl)ccc2F)cc1Nc1ncncc1C(=O)NC[C@H](C)O (single isomer, unassigned) [12a]
Label Class: no (0)

Molecule: COc1cnc(-c2cc(Cl)ccc2F)cc1Nc1ccncc1C(=O)NC[C@H](C)O (single isomer, unassigned) [13a]
Label Class: yes (1)

Molecule: C=C(C)c1cnc(-c2cc(Cl)ccc2F)cc1Nc1ccncc1C(=O)NC(C)(C)CO
Label Class: no (0)

Molecule: C=C(C)c1cnc(-c2cc(Cl)ccc2F)cc1Nc1ccncc1C(=O)NCCO
Label Class: no (0)

* * *

- Measurement Description: Plasma and brain concentrations at 0.5 and 1 h in mice
- Assay type: in vivo
- Run Conditions: male, mouse, plasma, 2 mg/kg; IV, 0.5 h; read-out: Plasma Concentration
Property: concentration at 0.5 h; scope: individual molecules

Molecule: CC(C)c1cnc(-c2cc(Cl)ccc2F)cc1Nc1ccncc1C(=O)NC(CO)CO
concentration at 0.5 h: 1690 nM

Molecule: C[C@H](O)CNC(=O)c1cnccc1Nc1cc(-c2cc(Cl)ccc2F)ncc1N(C)C (single isomer, unassigned) [16a]
concentration at 0.5 h: 3040 nM

Molecule: CC(C)c1cnc(-c2cc(Cl)ccc2F)cc1Nc1ccncc1C(=O)NCCN
concentration at 0.5 h: 280 nM

* * *

- Measurement Description: Pharmacokinetics and bioavailability in male mice after a single dose
- Type: in vivo
- Run Conditions: mouse, plasma, oral, 10 mg/kg
Property: Tmax; scope: individual molecules

Molecule: C=C(C)c1c(Nc2ccncc2C(=O)NC[C@H](C)O)cc(-c2cc(Cl)ccc2F)nc1N (single isomer, unassigned) [23a]
Reading Unit: min
Tmax: 15

Molecule: CCc1cnc(-c2cc(Cl)ccc2F)cc1Nc1ccncc1C(=O)NC[C@H](C)O (single isomer, unassigned) [11a]
Reading Unit: min
Tmax: 15

Molecule: CC(=O)NCCNC(=O)c1cnccc1Nc1cc(-c2cc(Cl)ccc2F)ncc1C(C)C [compound 14]
Reading Unit: min
Tmax: 30

Molecule: C=C(C)c1cnc(-c2cc(Cl)ccc2F)cc1Nc1ccncc1C(=O)NC(C)(C)CO [compound 8]
Reading Unit: min
Tmax: 15

Molecule: CC(C)c1cnc(-c2cc(Cl)ccc2F)cc1Nc1ccncc1C(=O)NC(CO)CO [compound 22]
Reading Unit: min
Tmax: 30

Molecule: CC(C)c1cnc(-c2cc(Cl)ccc2F)cc1Nc1ncncc1C(=O)NC[C@H](C)O (single isomer, unassigned) [12a]
Reading Unit: min
Tmax: 30

Molecule: C=C(C)c1cnc(-c2cc(Cl)ccc2F)cc1Nc1ccncc1C(=O)NC[C@H](C)O (single isomer, unassigned) [3a]
Reading Unit: min
Tmax: 15

Molecule: C=C(C)c1cnc(-c2cc(Cl)ccc2F)cc1Nc1ccncc1C(=O)NCCO [compound 26]
Reading Unit: min
Tmax: 30

* * *

Property: concentration at 1 h; scope: individual compounds
- Measurement Description: Plasma and brain concentrations at 0.5 and 1 h in mice
- Format: in vivo
- Run Conditions: male, mouse, plasma; PO (10 mg/kg), 1 h; read-out: Plasma concentration
Metric: concentration at 1 h (ng/mL)

Compound: C=C(C)c1cnc(-c2cc(Cl)ccc2F)cc1Nc1ccncc1C(=O)NC[C@H](C)O (single isomer, unassigned)
Reading Unit: ng/mL
Meas Value: 1250
//
Compound: CC(C)c1cnc(-c2cc(Cl)ccc2F)cc1Nc1ccncc1C(=O)NC[C@H](C)O (single isomer, unassigned)
Reading Unit: ng/mL
Meas Value: 905

* * *

- Measurement Description: Pharmacokinetics and bioavailability in male mice after a single dose
- Type: in vivo
- Run Conditions: mouse, plasma, oral, 10 mg/kg

Compound: C=C(C)c1c(Nc2ccncc2C(=O)NC[C@H](C)O)cc(-c2cc(Cl)ccc2F)nc1N (single isomer, unassigned) [23a]
Cmax (nM): 612
//
Compound: C[C@H](O)CNC(=O)c1cnccc1Nc1cc(-c2cc(Cl)ccc2F)ncc1N(C)C (single isomer, unassigned) [16a]
Cmax (nM): 3420
//
Compound: CC(=O)NCCNC(=O)c1cnccc1Nc1cc(-c2cc(Cl)ccc2F)ncc1C(C)C
Cmax (nM): 1880
//
Compound: C=C(C)c1cnc(-c2cc(Cl)ccc2F)cc1Nc1ccncc1C(=O)NC(C)(C)CO
Cmax (nM): 1060

* * *

Property: Cmax; scope: individual molecules
- Measurement Description: Pharmacokinetics and bioavailability in male mice after a single dose
- Type: in vivo
- Run Conditions: mouse, plasma, intravenous, 2 mg/kg
Metric: Cmax (nM)

Molecule: CC(C)c1cnc(-c2cc(Cl)ccc2F)cc1Nc1ccncc1C(=O)NC(CO)CO
Meas Value: 2460
--
Molecule: C[C@H](O)CNC(=O)c1cnccc1Nc1cc(-c2cc(Cl)ccc2F)ncc1N(C)C (single isomer, unassigned) [16a]
Meas Value: 3400
--
Molecule: CCc1cnc(-c2cc(Cl)ccc2F)cc1Nc1ccncc1C(=O)NC[C@H](C)O (single isomer, unassigned) [11a]
Meas Value: 3610
--
Molecule: CC(C)c1cnc(-c2cc(Cl)ccc2F)cc1Nc1ncncc1C(=O)NC[C@H](C)O (single isomer, unassigned) [12a]
Meas Value: 2150
--
Molecule: C=C(C)c1cnc(-c2cc(Cl)ccc2F)cc1Nc1ccncc1C(=O)NC(C)(C)CO
Meas Value: 1240
